Provide the reported response (photon counts) of each item.
Target: T1, biotin-MBP-tagged AtHAB1 (residues 172-511), Q9CAJ0
T1 chain: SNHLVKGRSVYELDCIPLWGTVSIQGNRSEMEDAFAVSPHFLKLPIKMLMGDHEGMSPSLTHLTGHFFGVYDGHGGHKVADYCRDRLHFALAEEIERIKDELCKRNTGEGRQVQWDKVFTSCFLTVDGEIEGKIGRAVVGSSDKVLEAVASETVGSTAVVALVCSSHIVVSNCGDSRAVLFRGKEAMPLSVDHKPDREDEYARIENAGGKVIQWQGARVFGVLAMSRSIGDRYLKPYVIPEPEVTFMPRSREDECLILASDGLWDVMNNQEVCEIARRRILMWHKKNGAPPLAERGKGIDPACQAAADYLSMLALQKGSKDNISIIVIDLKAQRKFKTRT
Experiment: AlphaScreen
Conditions: chain shown with the change; DMSO (no ABA); parent: est. 2200; read off a plot
One number for each entry.

H6-SUMO-tagged FePYR1 I75V (protein) MEQQPAAAEPEVPAGLGLTAAEYAELQPTVEAYHRYAVGPGQCSSLVAQRIEAPAAAVWAIVRRFDCPQVYKHFVRSCALRPDPDAGDELRPGRLREVSVISGLPASTSTERLDLLDDARRAFGFTITGGEHRLANYRSVTTVSELAPAAPAKICTVVLESYVVDVPEGNSEEDTRLFADTVVRLNLQKLKSLAEANATSAAAQATPPPQAE    2100
H6-SUMO-tagged FePYR1 H73P (protein) MEQQPAAAEPEVPAGLGLTAAEYAELQPTVEAYHRYAVGPGQCSSLVAQRIEAPAAAVWAIVRRFDCPQVYKPFIRSCALRPDPDAGDELRPGRLREVSVISGLPASTSTERLDLLDDARRAFGFTITGGEHRLANYRSVTTVSELAPAAPAKICTVVLESYVVDVPEGNSEEDTRLFADTVVRLNLQKLKSLAEANATSAAAQATPPPQAE    2000

**Query** Tell us which response (photon counts) value is on record for H6-SUMO-tagged FePYR1 L185A (protein) MEQQPAAAEPEVPAGLGLTAAEYAELQPTVEAYHRYAVGPGQCSSLVAQRIEAPAAAVWAIVRRFDCPQVYKHFIRSCALRPDPDAGDELRPGRLREVSVISGLPASTSTERLDLLDDARRAFGFTITGGEHRLANYRSVTTVSELAPAAPAKICTVVLESYVVDVPEGNSEEDTRLFADTVVRANLQKLKSLAEANATSAAAQATPPPQAE
**Result** 2300
